Give Ki for every item shown.
Numeric answer only, unit nM assumed.

Find the measured Ki: item `Nc1ccc(S(=O)(=O)NCc2ccc(S(N)(=O)=O)cc2)cc1` , target or system Carbonic anhydrase 12 (Homo sapiens, UniProt O43570).
3.5

Could you share what Ki was measured for `CN(N)c1ccc(S(N)(=O)=O)cc1` , tested on Carbonic anhydrase 12 (Homo sapiens, UniProt O43570)?
11

I'm curious: which Ki was measured for `NS(=O)(=O)c1nnc(-c2ccccc2Cl)s1` tested on Carbonic anhydrase 12 (Homo sapiens, UniProt O43570)?
36

Requested read-out Ki, target or system Carbonic anhydrase 12 (Homo sapiens, UniProt O43570), entry Cc1ccc(S(N)(=O)=O)cc1 [P-TOLUENESULFONAMIDE]
1.8

Missing value: Ki, Carbonic anhydrase 12 (Homo sapiens, UniProt O43570), entry `NS(=O)(=O)c1ccc(CCO)cc1` . Fill in?
55

Missing value: Ki, Carbonic anhydrase 12 (Homo sapiens, UniProt O43570), entry NS(=O)(=O)c1ccc(C(=O)O)cc1 [CARZENIDE] . Fill in?
34

Test system Carbonic anhydrase 12 (Homo sapiens, UniProt O43570); read-out Ki; what value for `Nc1nccc(Nc2ccc(S(N)(=O)=O)cc2)n1` ?
3.4

Item `Nc1ccccc1S(N)(=O)=O` with Carbonic anhydrase 12 (Homo sapiens, UniProt O43570) - Ki?
0.85

Form field - read-out: Ki; system: Carbonic anhydrase 12 (Homo sapiens, UniProt O43570); submitted item: NCc1ccc(S(N)(=O)=O)cc1 [MAFENIDE]
Sequence (O43570 whole entry): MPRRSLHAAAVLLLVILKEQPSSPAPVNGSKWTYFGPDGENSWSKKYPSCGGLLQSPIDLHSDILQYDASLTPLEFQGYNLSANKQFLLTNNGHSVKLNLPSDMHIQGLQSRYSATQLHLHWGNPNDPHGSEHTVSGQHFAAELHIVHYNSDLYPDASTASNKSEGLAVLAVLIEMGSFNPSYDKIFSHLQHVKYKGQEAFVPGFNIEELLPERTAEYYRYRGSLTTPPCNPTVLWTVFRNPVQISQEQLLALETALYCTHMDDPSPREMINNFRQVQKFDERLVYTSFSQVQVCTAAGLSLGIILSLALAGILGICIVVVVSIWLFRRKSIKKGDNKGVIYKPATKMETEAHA
0.3
